Measured DID (%) Tail suspension test of individual entries
Tested on: female Swiss albino mice
Assay: Tail Suspension Test
Assay type: in vivo
Settings: percentage decrease in duration of immobility compared to disease control

COMPOUND: Cc1nn(-c2ccccc2)c(-n2nnc3ccccc32)c1/C=C/C(=O)c1ccc(-n2ccc3ccccc32)cc1 [14c]
DID (%) Tail suspension test: 9.60%
--
COMPOUND: CNCCC(Oc1ccc(C(F)(F)F)cc1)c1ccccc1 (stereo not drawn) [Fluoxetine, reference compound]
DID (%) Tail suspension test: 59.67%
--
COMPOUND: COc1c(/C=C/C(=O)c2ccc(-n3c4ccccc4c4ccccc43)cc2)c(C)nn1-c1ccccc1 [13d]
DID (%) Tail suspension test: 8.55%
--
COMPOUND: Cc1nn(-c2ccccc2)c(N2CCCCC2)c1/C=C/C(=O)c1ccc(-n2c3ccccc3c3ccccc32)cc1 [13a]
DID (%) Tail suspension test: 5.74%
--
COMPOUND: Cc1nn(-c2ccccc2)c(N2CCOCC2)c1/C=C/C(=O)c1ccc(-n2c3ccccc3c3ccccc32)cc1 [13b]
DID (%) Tail suspension test: 11.30%
--
COMPOUND: Cc1nn(-c2ccccc2)c(N2CCCCC2)c1/C=C/C(=O)c1ccc(-n2cccc2)cc1 [15a]
DID (%) Tail suspension test: 4.50%
--
COMPOUND: Cc1nn(-c2ccccc2)c(-n2nnc3ccccc32)c1/C=C/C(=O)c1ccc(-n2c3ccccc3c3ccccc32)cc1 [13c]
DID (%) Tail suspension test: 34.67%
--
COMPOUND: Cc1nn(-c2ccccc2)c(N2CCOCC2)c1/C=C/C(=O)c1ccc(-n2ccc3ccccc32)cc1 [14b]
DID (%) Tail suspension test: 1.92%
--
COMPOUND: Cc1nn(-c2ccccc2)c(-n2nnc3ccccc32)c1/C=C/C(=O)c1ccc(-n2cccc2)cc1 [15c]
DID (%) Tail suspension test: 14.60%

###

System: female Swiss albino mice
Assay: Tail Suspension Test
Format: in vivo
Conditions: percentage decrease in duration of immobility compared to disease control

COMPOUND: Cc1nn(-c2ccccc2)c(N2CCOCC2)c1/C=C/C(=O)c1ccc(-n2cccc2)cc1 [15b]
DID (%) Tail suspension test: 5.74%

COMPOUND: Cc1nn(-c2ccccc2)c(N2CCCCC2)c1/C=C/C(=O)c1ccc(-n2ccc3ccccc32)cc1 [14a]
DID (%) Tail suspension test: 2.58%

COMPOUND: COc1c(/C=C/C(=O)c2ccc(-n3ccc4ccccc43)cc2)c(C)nn1-c1ccccc1 [14d]
DID (%) Tail suspension test: 5.57%

COMPOUND: COc1c(/C=C/C(=O)c2ccc(-n3cccc3)cc2)c(C)nn1-c1ccccc1 [15d]
DID (%) Tail suspension test: 16.24%
